Tested on: Enterobacter
Assay: Antimicrobial activity against Enterobacter isolates producing extended-spectrum beta-lactamase CTX-M-1 by agar dilution method
Format: functional

| COMPOUND | TARGET SYSTEM | COMPARATOR | MIC, µg/mL |
| --- | --- | --- | --- |
| CO/N=C(\C(=O)N[C@@H]1C(=O)N2C(C(=O)O)=C(COC(C)=O)CS[C@H]12)c1csc(N)n1 | Enterobacter | > | 256 |
| C[C@H]1[C@H](NC(=O)/C(=N\OC(C)(C)C(=O)O)c2csc(N)n2)C(=O)N1S(=O)(=O)O | Enterobacter | = | 64 |
| CC1(C)S[C@@H]2[C@H](NC(=O)[C@H](C(=O)O)c3ccsc3)C(=O)N2[C@H]1C(=O)O | Enterobacter | > | 256 |
| CCN1CCN(C(=O)N[C@@H](C(=O)N[C@@H]2C(=O)N3[C@@H]2SC(C)(C)[C@@H]3C(=O)O)c2ccccc2)C(=O)C1=O | Enterobacter | > | 256 |
| CO/N=C(\C(=O)N[C@@H]1C(=O)N2C(C(=O)[O-])=C(C[N+]3(C)CCCC3)CS[C@H]12)c1csc(N)n1 [CEFEPIME] | Enterobacter | = | 32 |
| CC(=O)OCC1=C(C(=O)O)N2C(=O)[C@@H](NC(=O)Cc3cccs3)[C@H]2SC1 | Enterobacter | > | 256 |
| C[C@@H](O)[C@H]1C(=O)N2C(C(=O)O)=C(SCCNC=N)C[C@H]12 [IMIPENEM ANHYDROUS] | Enterobacter | = | 0.25 |
| CC(C)(O/N=C(\C(=O)N[C@@H]1C(=O)N2C(C(=O)[O-])=C(C[n+]3ccccc3)CS[C@H]12)c1csc(N)n1)C(=O)O | Enterobacter | = | 4 |
| CC1(C)S[C@@H]2[C@H](NC(=O)[C@H](N)c3ccc(O)cc3)C(=O)N2[C@H]1C(=O)O | Enterobacter | > | 256 |
| C[C@@H](O)[C@H]1C(=O)N2C(C(=O)O)=C(S[C@@H]3CN[C@H](C(=O)Nc4cccc(C(=O)O)c4)C3)[C@H](C)[C@H]12 | Enterobacter | = | 0.12 |
| CO[C@@]1(NC(=O)Cc2cccs2)C(=O)N2C(C(=O)O)=C(COC(N)=O)CS[C@@H]21 | Enterobacter | = | 8 |
